Reference source: patent US20230406860A1

Biological target: GDP-bound KRAS protein (aa 1-169), containing both G12C and C118A amino acid substitutions (Homo sapiens, UniProt P01116, C118A/G12C)
Sequence (P01116 1-169 isoform P01116-2 G12C/C118A): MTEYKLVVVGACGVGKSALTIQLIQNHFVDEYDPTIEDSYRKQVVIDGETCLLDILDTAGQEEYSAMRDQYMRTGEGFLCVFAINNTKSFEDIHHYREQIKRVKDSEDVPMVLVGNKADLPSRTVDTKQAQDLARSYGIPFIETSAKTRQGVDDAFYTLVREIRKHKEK
Experiment: Coupled nucleotide exchange assay (SOS-mediated, AlphaScreen)
Type: biochemical
Settings: 2 h compound pre-incubation; read-out: Avg 2 h Coupled exchange IC50
Description: Coupled Nucleotide Exchange Assay: For all subsequent steps, DTT was added to the reaction buffer at a final concentration of 1 mM. […] The assay plates were then read on a plate reader measuring luminescence signal. Signal intensity of compound-containing wells were normalized to DMSO control, and data were analyzed using a 4-parameter logistic model to calculate IC50 values.
readout: pIC50
One number for each entry, as −log10 of the molar value.

>  <compound>
C=CC(=O)N1CC2(CCN(c3nc(N[C@H](CC(=O)NC)CC(C)C)c4ccc(Cl)cc4n3)C2)C1

>  <pIC50>
6.58

$$$$
>  <compound>
C=CC(=O)N1CC2(C1)CN(c1nc(N[C@H](CC(=O)NC)CC(C)C)c3ccccc3n1)CC2F (stereo partly shown)

>  <pIC50>
5.46

$$$$
>  <compound>
C=CC(=O)N1CC2(CCN(c3nc(N[C@H](CC(=O)NC)CC(C)C)c4ncc(OC)cc4n3)C2)C1

>  <pIC50>
7.66

$$$$

Input line: Given the compound C=CC(=O)N1CC2(CCN(c3nc4c(c(N[C@H](Cc5nnc(C)o5)CC(C)C)n3)CCCC4)C2)C1 , what is its reported pIC50?
Output line: 6.08

###

Biological target: GDP-bound KRAS protein (aa 1-169), containing both G12C and C118A amino acid substitutions (Homo sapiens, UniProt P01116, C118A/G12C)
Assay: Coupled nucleotide exchange assay (SOS-mediated, AlphaScreen)
Format: biochemical
Conditions: 2 h compound pre-incubation; read-out: Avg 2 h Coupled exchange IC50
Protocol: Coupled Nucleotide Exchange Assay: For all subsequent steps, DTT was added to the reaction buffer at a final concentration of 1 mM. […] The assay plates were then read on a plate reader measuring luminescence signal. Signal intensity of compound-containing wells were normalized to DMSO control, and data were analyzed using a 4-parameter logistic model to calculate IC50 values.
Field: log10 IC50. Provide a value for each of the compounds that follow.
Log10 applied to IC50; unit prior to transform: µM.

>  <compound>
C=CC(=O)N1CC2(CCN(c3nc4c(c(N[C@H](Cc5ccon5)CC(C)C)n3)CCC(C)(C)C4)C2)C1 [Example 1-48]

>  <readout>
log10 IC50

>  <number>
-1.28

$$$$
>  <compound>
C=CC(=O)N1CC2(CCN(c3nc4c(c(N[C@H](CC(=O)NC)CC(C)C)n3)CCC4)C2)C1 [Example 1-4]

>  <readout>
log10 IC50

>  <number>
0.37

$$$$
>  <compound>
C=CC(=O)N1CC2(CCN(c3nc(N[C@H](CC(=O)NC)CC(C)C)c4ncc(C5CC5)cc4n3)C2)C1 [Example 1-38]

>  <readout>
log10 IC50

>  <number>
-1.22

$$$$
>  <compound>
C=CC(=O)N1CC2(CCN(c3nc4c(c(N[C@H](CC(=O)NC)CC(C)C)n3)OCCC4)C2)C1 [Example 1-31]

>  <readout>
log10 IC50

>  <number>
-0.37

$$$$

Please look at the items below and tell me log10 IC50 for each one, in order.
1. C=CC(=O)N1CC2(C[C@@H](CO)N(c3nc4c(c(N[C@H](CC(=O)NC)CC(C)C)n3)CCCC4)C2)C1 (single isomer, unassigned) [Example 1-24-2]
2. C=CC(=O)N1CC2(CCN(c3nc4c(c(N[C@H](CC(=O)NC)c5cccc(C#N)c5)n3)CCCC4)C2)C1 (single isomer, unassigned) [Example 1-21-2]

Output line:
1.77
2.11
